Kindly state abundance fitness for each of the entries shown.
B1: Serine/threonine-protein kinase A-Raf, residues 21 to 89; numbered along this chain, P10398 (parent)
chain: VKVYLPNKQRTVVTVRDGMSVYDSLDKALKVRGLNQDCCVVYRLIKGRKTVTAWDTAIAPLDGEELIVE

Variants of: B1
method: abundance fitness (aPCA) (normalised: wild type 0, dead -1); higher = more abundant; growth selection in yeast, the domain comes from the species named
study-conditions: Homo sapiens
Reply with just the number.

Would you kindly share the measured abundance fitness for VGVYLPNKQRTVVTVRDGMSVYDSLDKALKVRGLNQDCCVVYRLIKGRKTVTAWDTAIAPLDGEELIVE ? -0.37

Would you kindly share the measured abundance fitness for VKVVLPNKQRTVVTVRDGMSVYDSLDKALKVRGLNQDCCVVYRLIKGRKTVTAWDTAIAPLDGEELIVE ? 0.011

Would you kindly share the measured abundance fitness for VKVYLPNKQRTVVTVRDGMSVYDSLDKALKVRGLNQDCCVVYRLIKGRKTVTHWDTAIAPLDGEELIVE ? -0.098

Would you kindly share the measured abundance fitness for VKVYLPNKQRTVVTLRDGMSVYDSLDKALKVRGLNQDCCVVYRLIKGRKTVTAWDTAIAPLDGEELIVE ? -0.105

Would you kindly share the measured abundance fitness for VKVYLPNKQRTVVTVRDIMSVYDSLDKALKVRGLNQDCCVVYRLIKGRKTVTAWDTAIAPLDGEELIVE ? -0.882

Would you kindly share the measured abundance fitness for VKVYLPNKQRTVVTVRDGMSVYDSLDKALKVRGLNQDCCVVYALIKGRKTVTAWDTAIAPLDGEELIVE ? -0.721

Would you kindly share the measured abundance fitness for VKVYLPNKQRTVVTVRDGMSWYDSLDKALKVRGLNQDCCVVYRLIKGRKTVTAWDTAIAPLDGEELIVE ? -0.602
